Where do these numbers come from? They come from ChEMBL document CHEMBL1146359.

target: UniProt P55055; assay: Antagonist activity at human LXRbeta by transient transfection assay; assay type: functional; design: concentration or dose not given beside the values
Sequence (P55055 whole entry): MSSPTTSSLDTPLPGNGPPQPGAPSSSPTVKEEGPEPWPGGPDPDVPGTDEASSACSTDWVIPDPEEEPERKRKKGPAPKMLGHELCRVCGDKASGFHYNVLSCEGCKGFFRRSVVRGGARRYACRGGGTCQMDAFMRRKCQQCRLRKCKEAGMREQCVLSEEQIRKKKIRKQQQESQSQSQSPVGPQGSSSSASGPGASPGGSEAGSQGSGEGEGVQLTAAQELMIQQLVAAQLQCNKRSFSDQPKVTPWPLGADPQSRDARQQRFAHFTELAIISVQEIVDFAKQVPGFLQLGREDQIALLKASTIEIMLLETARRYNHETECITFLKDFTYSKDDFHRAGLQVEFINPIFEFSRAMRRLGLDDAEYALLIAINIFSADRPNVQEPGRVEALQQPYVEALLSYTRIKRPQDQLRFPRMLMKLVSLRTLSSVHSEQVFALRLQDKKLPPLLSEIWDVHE
In this section we review reported Activity values for a set of compounds.

{"COMPOUND": "O=S(=O)(c1ccccc1)N(CC(F)(F)F)c1ccc(C(O)(C2CCCCC2)C(F)(F)F)cc1 (centres undefined)", "STUDY SYSTEM": "UniProt P55055", "Activity, %": 9}
{"COMPOUND": "O=S(=O)(c1ccccc1)N(CC(F)(F)F)c1ccc(C(O)(C(F)(F)F)C(F)(F)F)cc1", "STUDY SYSTEM": "UniProt P55055", "Activity, %": 100}
{"COMPOUND": "CC(O)c1ccc(N(CC(F)(F)F)S(=O)(=O)c2ccccc2)cc1 (centres undefined)", "STUDY SYSTEM": "UniProt P55055", "Activity, %": 3}
{"COMPOUND": "CC(O)(c1ccc(N(CC(F)(F)F)S(=O)(=O)c2ccccc2)cc1)C(F)(F)F (centres undefined)", "STUDY SYSTEM": "UniProt P55055", "Activity, %": 50}
{"COMPOUND": "O=S(=O)(c1ccccc1)N(CC(F)(F)F)c1ccc(C(O)(CC(F)(F)F)C(F)(F)F)cc1 (centres undefined)", "STUDY SYSTEM": "UniProt P55055", "Activity, %": 73}
{"COMPOUND": "O=S(=O)(c1ccccc1)N(CC(F)(F)F)c1ccc(C(O)(c2ccccc2)C(F)(F)F)cc1 (centres undefined)", "STUDY SYSTEM": "UniProt P55055", "Activity, %": 30}
{"COMPOUND": "CCCC(O)(c1ccc(N(CC(F)(F)F)S(=O)(=O)c2ccccc2)cc1)C(F)(F)F (centres undefined)", "STUDY SYSTEM": "UniProt P55055", "Activity, %": 27}
{"COMPOUND": "O=S(=O)(c1ccccc1)N(CC(F)(F)F)c1ccc(C(O)(C(F)(F)F)C(F)(F)C(F)(F)C(F)(F)F)cc1 (centres undefined)", "STUDY SYSTEM": "UniProt P55055", "Activity, %": 58}
{"COMPOUND": "CC(=O)c1ccc(N(CC(F)(F)F)S(=O)(=O)c2ccccc2)cc1", "STUDY SYSTEM": "UniProt P55055", "Activity, %": 3}
